# TESTED_SYSTEM: NS3h_2a(JFH1) (Hepatitis C virus genotype 2a)
# Construct: truncated C-terminally His-tagged NS3 proteins lacking the N-terminal protease, called NS3h; His-tag (C); made in house
# Sequence (Q99IB8 1196-1661): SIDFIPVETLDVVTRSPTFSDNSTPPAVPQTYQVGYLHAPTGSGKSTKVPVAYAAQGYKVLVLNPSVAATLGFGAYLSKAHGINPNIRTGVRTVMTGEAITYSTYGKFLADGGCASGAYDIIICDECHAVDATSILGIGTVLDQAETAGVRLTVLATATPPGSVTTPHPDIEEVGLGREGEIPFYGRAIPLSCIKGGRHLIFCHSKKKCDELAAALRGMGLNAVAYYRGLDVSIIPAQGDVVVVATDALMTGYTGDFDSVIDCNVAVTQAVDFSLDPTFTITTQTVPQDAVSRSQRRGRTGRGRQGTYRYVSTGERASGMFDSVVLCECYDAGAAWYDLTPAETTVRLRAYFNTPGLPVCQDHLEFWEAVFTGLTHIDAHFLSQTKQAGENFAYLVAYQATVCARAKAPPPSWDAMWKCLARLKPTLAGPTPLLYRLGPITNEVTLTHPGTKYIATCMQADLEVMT
# METHOD_DESCRIPTION: MBHA, DNA substrate, genotype 2a helicase
# Type: biochemical, hepatitis C virus genotype 2a(JFH1)
# TEST_CONDITIONS: genotype 2a (JFH1); read-out: Target Potency MBHA (IC50 avg., μM) 2a (JFH1) (converted)
Can you tell me log10 of IC50 for the items I'm about to list?
On a log10 scale: recorded IC50, unit µM.

# return log10 of IC50 of "Cc1ccc2nc(-c3ccc(NC(=O)c4ccc(N)cc4)cc3)sc2c1S(=O)(=O)O" (system: NS3h_2a(JFH1) (Hepatitis C virus genotype 2a))
1.81

# return log10 of IC50 of Cc1ccc2nc(-c3ccc4nc(-c5ccc(NC(=O)c6ccc7nc(-c8ccc(N)cc8)sc7c6)cc5)sc4c3)sc2c1S(=O)(=O)O [Compound 35] (system: NS3h_2a(JFH1) (Hepatitis C virus genotype 2a))
0.54

# return log10 of IC50 of Cc1ccc2nc(-c3ccc(NC(=O)c4ccc(NC(=O)c5ccc(C(F)(F)F)cc5)cc4)cc3)sc2c1S(=O)(=O)O.N [Compound 44] (system: NS3h_2a(JFH1) (Hepatitis C virus genotype 2a))
1.17

# return log10 of IC50 of Cc1ccc2nc(-c3ccc4nc(-c5ccc(NC(=O)c6ccc7ccccc7c6)cc5)sc4c3)sc2c1S(=O)(=O)O [Compound 33] (system: NS3h_2a(JFH1) (Hepatitis C virus genotype 2a))
0.64

# return log10 of IC50 of Cc1ccc2nc(-c3ccc4nc(-c5ccc(NC(=O)c6cc(F)ccc6C(F)(F)F)cc5)sc4c3)sc2c1S(=O)(=O)O [Compound 26] (system: NS3h_2a(JFH1) (Hepatitis C virus genotype 2a))
1.22

# return log10 of IC50 of Cc1ccc2nc(-c3ccc4nc(-c5ccc(NC(=O)c6ccc(Br)cc6)cc5)sc4c3)sc2c1S(=O)(=O)O [Compound 15] (system: NS3h_2a(JFH1) (Hepatitis C virus genotype 2a))
0.87

# return log10 of IC50 of "Cc1ccc2nc(-c3ccc4nc(NC(=O)c5ccc6ncoc6c5)sc4c3)sc2c1" (system: NS3h_2a(JFH1) (Hepatitis C virus genotype 2a))
1.88

# return log10 of IC50 of Cc1ccc2nc(-c3ccc4nc(-c5ccc(NC(=O)c6ccccc6C(F)(F)F)cc5)sc4c3)sc2c1S(=O)(=O)O [Compound 19] (system: NS3h_2a(JFH1) (Hepatitis C virus genotype 2a))
1.39

# return log10 of IC50 of Cc1ccc2nc(-c3ccc4nc(-c5ccc(NC(=O)c6ccc(C(F)(F)F)cc6)cc5)sc4c3)sc2c1S(=O)(=O)O [Compound 12] (system: NS3h_2a(JFH1) (Hepatitis C virus genotype 2a))
0.40

# return log10 of IC50 of Cc1ccc2nc(-c3ccc4nc(-c5ccc(NC(=O)c6cc(C(F)(F)F)ccc6F)cc5)sc4c3)sc2c1S(=O)(=O)O [Compound 25] (system: NS3h_2a(JFH1) (Hepatitis C virus genotype 2a))
0.83

# return log10 of IC50 of Cc1ccc2nc(-c3ccc(NC(=O)c4ccc(NC(=S)Nc5ccccc5)cc4)cc3)sc2c1S(=O)(=O)O.N [Compound 43] (system: NS3h_2a(JFH1) (Hepatitis C virus genotype 2a))
1.46

# return log10 of IC50 of Cc1ccc2nc(-c3ccc4nc(-c5ccc(NC(=S)Nc6ccccc6)cc5)sc4c3)sc2c1S(=O)(=O)O.N [Compound 50] (system: NS3h_2a(JFH1) (Hepatitis C virus genotype 2a))
0.98

====

Can you tell me EC50 for the items I'm about to list?
# Test system: MBHA DNA substrate
# METHOD_DESCRIPTION: Modified FID assay, SYBR Green I
# Assay type: binding
# TEST_CONDITIONS: SYBR Green; read-out: FID (SG) EC50 (converted)
# Method: A modified FID assay, in which ethidium bromide was replaced with SYBR Green I (Invitrogen), was used to estimate a compounds affinity for the MBHA substrate. Reactions were performed as described above except that the DNA substrate was present at 0.32 μM, ethidium bromide was absent, and SYBER Green was present at (0.68 μM). Data were normalized as described above and fit to concentration-response equation using GraphPad Prism software. […]

Look up EC50 of "Cc1ccc2nc(-c3ccc4nc(-c5ccc(NC(=O)c6ccc7ccccc7c6)cc5)sc4c3)sc2c1S(=O)(=O)O" and report it.
25 µM

Look up EC50 of "Cc1ccc2nc(-c3ccc4nc(-c5ccc(NC(=O)Nc6ccc(C(F)(F)F)cc6)cc5)sc4c3)sc2c1S(=O)(=O)O.N" and report it.
18 µM

Look up EC50 of "Cc1ccc2nc(-c3ccc4nc(-c5ccc(NC(=O)c6ccc(NC(=O)OCC7c8ccccc8-c8ccccc87)cc6)cc5)sc4c3)sc2c1S(=O)(=O)O" and report it.
6 µM

Look up EC50 of "Cc1ccc2nc(-c3ccc4nc(-c5ccc(NC(=O)c6cccc(C(F)(F)F)c6)cc5)sc4c3)sc2c1S(=O)(=O)O" and report it.
> 100 µM

Look up EC50 of "Cc1ccc2nc(-c3ccc4nc(-c5ccc(NC(=O)c6ccc(CNC(=O)OCC7c8ccccc8-c8ccccc87)cc6)cc5)sc4c3)sc2c1S(=O)(=O)O.N" and report it.
56 µM

Look up EC50 of "Cc1ccc2nc(-c3ccc4nc(-c5ccc(NC(=O)c6cccc(C(F)(F)F)c6F)cc5)sc4c3)sc2c1S(=O)(=O)O" and report it.
> 100 µM

Look up EC50 of "Cc1ccc2nc(-c3ccc(NC(=O)c4ccc(NC(=O)c5ccc(C(F)(F)F)cc5)cc4)cc3)sc2c1S(=O)(=O)O.N" and report it.
> 100 µM

Look up EC50 of "Cc1ccc(NC(=O)Nc2ccc(-c3nc4ccc(-c5nc6ccc(C)c(S(=O)(=O)O)c6s5)cc4s3)cc2)cc1" and report it.
18 µM

Look up EC50 of "Cc1ccc2nc(-c3ccc(NC(=O)c4ccc(NC(=O)OCC5c6ccccc6-c6ccccc65)cc4)cc3)sc2c1S(=O)(=O)O.N" and report it.
> 100 µM

Look up EC50 of "Cc1ccc2nc(-c3ccc4nc(-c5ccc(NC(=O)c6ccc(Cl)cc6)cc5)sc4c3)sc2c1S(=O)(=O)O" and report it.
31 µM

Look up EC50 of "Cc1ccc2nc(-c3ccc4nc(-c5ccc(NC(=O)c6c(F)cccc6C(F)(F)F)cc5)sc4c3)sc2c1S(=O)(=O)O" and report it.
64 µM

Look up EC50 of "Cc1ccc2nc(-c3ccc(NC(=O)c4ccc(NC(=O)c5ccccc5)cc4)cc3)sc2c1S(=O)(=O)O.N" and report it.
> 100 µM

Look up EC50 of "Cc1ccc(C(=O)Nc2ccc(-c3nc4ccc(-c5nc6ccc(C)c(S(=O)(=O)O)c6s5)cc4s3)cc2)cc1" and report it.
> 100 µM

====

# METHOD_DESCRIPTION: Plasma protein binding (RED), mouse
# Format: in vitro ADME
# TEST_CONDITIONS: pH 7.4, 1 μM, read-out: Plasma Protein Binding (% Bound) Mouse (converted)
MEASURED_METRIC: fraction unbound at 4 h, 1 μM
Returns: the value as a bare number; no unit string appended.

Look up fraction unbound at 4 h, 1 μM of Cc1ccc2nc(-c3ccc4nc(-c5ccc(NC(=O)c6cccc(Cl)c6)cc5)sc4c3)sc2c1S(=O)(=O)O [Compound 17] and report it.
0.02

====

Can you tell me Int.* (Ratio) (Interference) for the items I'm about to list?
# TESTED_SYSTEM: HCV NS3 helicase NS3h_1b(con1) (Hepatitis C virus genotype 1b)
# Construct: truncated C-terminally His-tagged NS3 proteins lacking the N-terminal protease, called NS3h; His-tag (C); made in house
# Sequence (Q9WMX2 1192-1657): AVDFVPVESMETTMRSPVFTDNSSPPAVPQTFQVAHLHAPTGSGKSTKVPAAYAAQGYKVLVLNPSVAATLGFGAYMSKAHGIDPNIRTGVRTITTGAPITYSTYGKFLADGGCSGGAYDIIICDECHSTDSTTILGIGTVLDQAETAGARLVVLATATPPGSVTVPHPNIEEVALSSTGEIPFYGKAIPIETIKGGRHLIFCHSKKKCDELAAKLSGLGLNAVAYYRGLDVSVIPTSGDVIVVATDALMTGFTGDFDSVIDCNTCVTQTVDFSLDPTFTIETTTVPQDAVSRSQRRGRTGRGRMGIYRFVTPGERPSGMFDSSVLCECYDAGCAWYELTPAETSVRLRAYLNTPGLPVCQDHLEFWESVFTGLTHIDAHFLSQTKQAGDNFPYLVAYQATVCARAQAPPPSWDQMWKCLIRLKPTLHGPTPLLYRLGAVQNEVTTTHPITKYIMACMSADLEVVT
# METHOD_DESCRIPTION: MBHA screen of NCI mechanistic set library at 20 μM (percent inhibition, compound interference)
# Type: biochemical
# TEST_CONDITIONS: compounds at 20 μM; assay interference calculated with Equation 2 (fluorescence vs DMSO-only controls before ATP)
Answer format: numeric, Ratio implied, no suffix.

Look up Int.* (Ratio) (Interference) of CC(O)CCC(=O)c1ccoc1 (stereo not drawn) [Compound 349438] and report it.
1.01

Look up Int.* (Ratio) (Interference) of COc1cc(CC(=O)c2cc3c(cc2-c2ccccc2)OCO3)cc(OC)c1OC [Compound 648419] and report it.
0.90

Look up Int.* (Ratio) (Interference) of CN(C)c1cccc(/C=C(\C#N)c2ccccc2)c1 [Compound 667251] and report it.
1.09

Look up Int.* (Ratio) (Interference) of CCOC(=O)C1=C(C)NC(=S)NC1c1ccccc1 (stereo not drawn) [Compound 643910] and report it.
1.06

Look up Int.* (Ratio) (Interference) of COc1ccc(O)cc1 [Compound 4960] and report it.
0.90

Look up Int.* (Ratio) (Interference) of CC(C)=CCC1=C(O)c2ccccc2C(=O)C1=O [Compound 11905] and report it.
0.80

Look up Int.* (Ratio) (Interference) of COc1cc(-c2cc(=O)c3c(OC)c(OC)c(OC)c(OC)c3o2)cc(OC)c1OC [Compound 67580] and report it.
1.12

Look up Int.* (Ratio) (Interference) of Nc1ncnc2c1nc(Cl)n2[C@@H]1O[C@@H]2COP(=O)(O)O[C@H]2[C@H]1O [Compound 284751] and report it.
1.05

Look up Int.* (Ratio) (Interference) of CCOC(=O)CNC(=O)NC12CC3CC(CC(C3)C1)C2 [Compound 208914] and report it.
1.09
